experiment: Protein binding in mouse plasma; format: ADME, cell-free; settings: read-out: PPB (converted)
RECORDED_METRIC: fraction unbound
Form rule: numeric answer, no unit written next to it.

## Task Provide only the value of recorded fraction unbound for CC(=O)N[C@H]1CC[C@H](Nc2nccc(-c3c(-c4ccccc4)noc3C)n2)CC1
## Result 0.08

---

test: Cmax in mouse at 30 mg/kg, po; assay type: ADME, organism-based; parameters: dose 30 mg/kg, route oral; conditions: in vivo
RECORDED_METRIC: Cmax (nM)
Just the number please, in nM, no unit attached.

## Task Provide only the value of recorded Cmax for CC(=O)N[C@H]1CC[C@H](Nc2nccc(-c3c(-c4ccccc4)noc3C)n2)CC1
## Result 2960
